Molecular target: Cell division control protein 42 homolog (Homo sapiens) (UniProt P60953)
Sequence (P60953 whole entry, looked up): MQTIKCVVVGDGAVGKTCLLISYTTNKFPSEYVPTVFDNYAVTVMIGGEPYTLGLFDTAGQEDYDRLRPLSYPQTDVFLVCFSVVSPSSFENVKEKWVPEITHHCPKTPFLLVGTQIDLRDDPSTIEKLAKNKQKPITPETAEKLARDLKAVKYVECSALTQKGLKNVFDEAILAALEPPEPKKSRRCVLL
Test: inhibition of fluorescent GTP binding to mutant Cdc42 – biochemical, probe extension, bead-based multiplex flow cytometry, round 1, SAR follow-up (AID 588373)
Conditions: Bodipy-FL-GTP binding, EDTA
MEASURE: EC50

compound COc1ccc(C2CC(c3ccccc3)=NN2c2ccc(S(N)(=O)=O)cc2)cc1 (stereo not drawn) , EC50 observed: 1890 nM

compound NS(=O)(=O)c1ccc(N2N=C(c3ccccc3)CC2c2ccccc2)cc1 (stereo not drawn) , EC50 observed: 6140 nM

compound O=C(C#Cc1ccccc1)c1cccc([N+](=O)[O-])c1 , EC50 observed: 368 nM
